Give IC50 for every item shown.
TARGET_OF_ASSAY: Disintegrin and metalloproteinase domain-containing protein 17 (Sus scrofa)
Sequence (O77636 whole entry, the tested form may be a part): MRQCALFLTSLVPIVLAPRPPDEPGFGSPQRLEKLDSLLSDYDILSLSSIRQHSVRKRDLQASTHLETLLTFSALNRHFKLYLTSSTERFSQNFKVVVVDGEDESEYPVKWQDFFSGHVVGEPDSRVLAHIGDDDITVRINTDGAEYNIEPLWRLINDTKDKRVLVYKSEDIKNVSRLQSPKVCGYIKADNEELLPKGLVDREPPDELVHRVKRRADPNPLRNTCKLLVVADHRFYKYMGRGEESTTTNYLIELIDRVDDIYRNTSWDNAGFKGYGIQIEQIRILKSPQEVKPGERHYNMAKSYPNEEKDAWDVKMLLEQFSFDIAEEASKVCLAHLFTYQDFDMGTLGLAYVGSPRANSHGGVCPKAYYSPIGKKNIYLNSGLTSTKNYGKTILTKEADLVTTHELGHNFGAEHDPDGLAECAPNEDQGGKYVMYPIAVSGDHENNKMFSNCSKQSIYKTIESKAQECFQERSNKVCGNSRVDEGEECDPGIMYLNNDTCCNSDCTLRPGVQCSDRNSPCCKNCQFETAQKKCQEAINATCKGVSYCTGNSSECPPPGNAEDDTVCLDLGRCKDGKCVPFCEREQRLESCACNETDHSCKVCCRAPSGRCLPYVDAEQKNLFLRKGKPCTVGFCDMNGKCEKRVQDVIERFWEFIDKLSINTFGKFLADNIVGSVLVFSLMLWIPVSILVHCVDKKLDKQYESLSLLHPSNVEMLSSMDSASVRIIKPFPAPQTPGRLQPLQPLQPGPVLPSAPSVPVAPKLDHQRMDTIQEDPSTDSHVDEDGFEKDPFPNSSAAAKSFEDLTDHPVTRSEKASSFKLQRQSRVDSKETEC
Lab note: write values as number then unit, every time.

Prompt line: For the record Cc1cc(COc2ccc(C(=O)Nc3ccccc3C(=O)c3c[nH]c(=O)[nH]3)cc2)c2ccccc2n1 , what value of IC50 is listed for Disintegrin and metalloproteinase domain-containing protein 17 (Sus scrofa)?
Response line: 9 nM

Prompt line: For the record Cc1cc(COc2ccc(NC(=O)[C@H]3[C@H](C(=O)NO)CCCN3C)cc2)c2ccccc2n1 , what value of IC50 is listed for Disintegrin and metalloproteinase domain-containing protein 17 (Sus scrofa)?
Response line: 6.2 nM

====

MEASUREMENT_NOTES: Inhibition of bovine aggrecanase
Parameters: species or system Bos taurus
Give pIC50 for every item shown.
// pIC50: -log10(molar conc.)

Prompt line: Dear colleague, I am looking for the recorded pIC50 of the following molecule: CC1(CN[C@H](C(=O)NO)[C@@H](Cc2cccc(O)c2)C(=O)N[C@H]2c3ccccc3C[C@H]2O)CC1
Response line: 8.10

Prompt line: Dear colleague, I am looking for the recorded pIC50 of the following molecule: CS(=O)(=O)N1CCC([C@H](C(=O)NO)[C@@H](Cc2cccc(O)c2)C(=O)N[C@H]2c3ccccc3C[C@H]2O)CC1
Response line: 8.52

Prompt line: Dear colleague, I am looking for the recorded pIC50 of the following molecule: O=C(NO)[C@@H](NCC1CC1)[C@@H](Cc1cccc(O)c1)C(=O)N[C@H]1c2ccccc2C[C@H]1O
Response line: 7.92

====

READOUT: pKi
// pKi: -log10(molar conc.)

Prompt line: For the record NC(=O)[C@H](CCC(=O)O)NC(=O)[C@H](CCC(=O)O)NC(=O)[C@H](Cc1cc(-c2ccc(-c3cccc(Cl)c3)cc2)no1)CP(=O)(O)c1ccc(Br)cc1 , what value of pKi is listed for Collagenase 3 (Homo sapiens)?
Response line: 7.31

====

# Ki per entry for UniProtKB P08254
# Sequence (P08254 whole entry): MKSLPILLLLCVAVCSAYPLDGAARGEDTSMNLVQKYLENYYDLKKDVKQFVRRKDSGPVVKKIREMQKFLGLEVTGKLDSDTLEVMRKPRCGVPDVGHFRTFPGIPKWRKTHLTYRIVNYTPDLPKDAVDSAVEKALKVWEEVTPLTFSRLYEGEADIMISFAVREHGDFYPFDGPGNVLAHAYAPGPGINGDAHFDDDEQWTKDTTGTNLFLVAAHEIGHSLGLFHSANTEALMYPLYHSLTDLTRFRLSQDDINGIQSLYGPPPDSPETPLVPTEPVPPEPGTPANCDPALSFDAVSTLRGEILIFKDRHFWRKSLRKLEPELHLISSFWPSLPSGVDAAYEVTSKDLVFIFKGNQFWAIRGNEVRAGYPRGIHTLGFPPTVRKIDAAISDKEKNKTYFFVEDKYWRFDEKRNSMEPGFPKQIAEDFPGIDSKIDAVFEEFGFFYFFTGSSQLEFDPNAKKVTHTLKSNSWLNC
# output: bare number, implied unit nM

Prompt line: Dear colleague, I am looking for the recorded Ki of the following molecule: Cc1cc(COc2ccc(C(=O)N[C@@]3(CC(=O)NO)C[C@@H](C)N[C@@H](C)C3)cc2)c2ccccc2n1
Response line: 762

Prompt line: Dear colleague, I am looking for the recorded Ki of the following molecule: O=S(=O)(CCC(S)CS)c1ccc(Oc2ccccc2)cc1 (stereo not drawn)
Response line: 10000

Prompt line: Dear colleague, I am looking for the recorded Ki of the following molecule: NC(=O)[C@H](CCC(=O)O)NC(=O)[C@H](CCC(=O)O)NC(=O)[C@H](Cc1cc(-c2ccc(-c3cccc(Cl)c3)cc2)no1)CP(=O)(O)c1ccc(Br)cc1
Response line: 40

====

TARGET_OF_ASSAY: Neutrophil collagenase (Homo sapiens, UniProt P22894)
Sequence (P22894 whole entry): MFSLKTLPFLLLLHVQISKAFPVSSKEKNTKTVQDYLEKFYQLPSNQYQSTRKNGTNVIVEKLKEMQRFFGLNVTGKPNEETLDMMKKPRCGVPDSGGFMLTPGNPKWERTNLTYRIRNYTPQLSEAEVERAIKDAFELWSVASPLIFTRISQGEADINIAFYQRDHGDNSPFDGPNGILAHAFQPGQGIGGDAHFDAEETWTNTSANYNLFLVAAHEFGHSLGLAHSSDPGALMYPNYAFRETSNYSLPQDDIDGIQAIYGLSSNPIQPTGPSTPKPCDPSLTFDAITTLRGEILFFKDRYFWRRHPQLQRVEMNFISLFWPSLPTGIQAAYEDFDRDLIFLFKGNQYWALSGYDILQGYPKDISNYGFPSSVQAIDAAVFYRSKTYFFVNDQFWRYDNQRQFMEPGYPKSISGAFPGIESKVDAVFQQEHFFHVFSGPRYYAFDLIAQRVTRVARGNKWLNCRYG
MEASUREMENT_NOTES: Inhibition of MMP8
Give Ki for every item shown.
# output: bare number, implied unit nM

Prompt line: Dear colleague, I am looking for the recorded Ki of the following molecule: O=C1NCCCC[C@@H](C(=O)NCC(=O)N2CCOCC2)NC(=O)[C@H](Cc2ccc(-c3ccccc3C(F)(F)F)cc2)[C@@H](C(=O)NO)CCCO1
Response line: 200

Prompt line: Dear colleague, I am looking for the recorded Ki of the following molecule: COc1ccccc1SC[C@H](CP(=O)(O)[C@H](Cc1ccccc1)NC(=O)OCc1ccccc1)C(=O)N[C@@H](Cc1c[nH]c2ccccc12)C(N)=O
Response line: 38.9

Prompt line: Dear colleague, I am looking for the recorded Ki of the following molecule: Cc1cc(COc2ccc(C(=O)N[C@@]3(CC(=O)NO)C[C@@H](C)N[C@@H](C)C3)cc2)c2ccccc2n1
Response line: 2050

Prompt line: Dear colleague, I am looking for the recorded Ki of the following molecule: NC(=O)[C@H](CCC(=O)O)NC(=O)[C@H](CCC(=O)O)NC(=O)[C@H](Cc1cc(-c2ccc(-c3cccc(Cl)c3)cc2)no1)CP(=O)(O)c1ccc(Br)cc1
Response line: 271

====

Give Ki for every item shown.

Prompt line: For the record NC(=O)[C@H](CCC(=O)O)NC(=O)[C@H](CCC(=O)O)NC(=O)[C@H](Cc1cc(-c2ccc(-c3cccc(Cl)c3)cc2)no1)CP(=O)(O)c1ccc(Br)cc1 , what value of Ki is listed for Matrix metalloproteinase-14 (Homo sapiens, UniProt P50281)?
Response line: 140 nM

Prompt line: For the record COc1ccccc1SC[C@H](CP(=O)(O)[C@H](Cc1ccccc1)NC(=O)OCc1ccccc1)C(=O)N[C@@H](Cc1c[nH]c2ccccc12)C(N)=O , what value of Ki is listed for Matrix metalloproteinase-14 (Homo sapiens, UniProt P50281)?
Response line: 160 nM

Prompt line: For the record Cc1cc(COc2ccc(C(=O)N[C@@]3(CC(=O)NO)C[C@@H](C)N[C@@H](C)C3)cc2)c2ccccc2n1 , what value of Ki is listed for Matrix metalloproteinase-14 (Homo sapiens, UniProt P50281)?
Response line: 163 nM

Prompt line: For the record O=C1NCCCC[C@@H](C(=O)NCC(=O)N2CCOCC2)NC(=O)[C@H](Cc2ccc(-c3ccccc3C(F)(F)F)cc2)[C@@H](C(=O)NO)CCCO1 , what value of Ki is listed for Matrix metalloproteinase-14 (Homo sapiens, UniProt P50281)?
Response line: > 2000 nM

====

READOUT: pKi
// pKi: -log10(molar conc.)

Prompt line: For the record NC(=O)[C@H](CCC(=O)O)NC(=O)[C@H](CCC(=O)O)NC(=O)[C@H](Cc1cc(-c2ccc(-c3cccc(Cl)c3)cc2)no1)CP(=O)(O)c1ccc(Br)cc1 , what value of pKi is listed for Macrophage metalloelastase (Homo sapiens, UniProt P39900)?
Response line: 9.72

====

READOUT: pIC50
// pIC50: -log10(molar conc.)

Prompt line: For the record COC[C@@H](NC(=O)[C@@H](NC(=O)[C@H](CCCc1ccc(-c2ccccc2)c(C)c1)CC(=O)NO)C(C)(C)C)c1ccccc1 , what value of pIC50 is listed for 72 kDa type IV collagenase (Homo sapiens, UniProt P08253)?
Response line: 6.12

====

READOUT: pKi
// pKi: -log10(molar conc.)

Prompt line: For the record CC1(CN[C@H](C(=O)NO)[C@@H](Cc2cccc(O)c2)C(=O)N[C@H]2c3ccccc3C[C@H]2O)CC1 , what value of pKi is listed for Interstitial collagenase (Homo sapiens, UniProt P03956)?
Response line: 5.28

Prompt line: For the record CS(=O)(=O)NCc1noc([C@H](CCCC2CCCCC2)CC(=O)NO)n1 , what value of pKi is listed for Interstitial collagenase (Homo sapiens, UniProt P03956)?
Response line: 9.00

Prompt line: For the record NC(=O)[C@H](CCC(=O)O)NC(=O)[C@H](CCC(=O)O)NC(=O)[C@H](Cc1cc(-c2ccc(-c3cccc(Cl)c3)cc2)no1)CP(=O)(O)c1ccc(Br)cc1 , what value of pKi is listed for Interstitial collagenase (Homo sapiens, UniProt P03956)?
Response line: 4.17

====

TARGET_OF_ASSAY: A disintegrin and metalloproteinase with thrombospondin motifs 5 (Homo sapiens, UniProt Q9UNA0)
Sequence (Q9UNA0 whole entry): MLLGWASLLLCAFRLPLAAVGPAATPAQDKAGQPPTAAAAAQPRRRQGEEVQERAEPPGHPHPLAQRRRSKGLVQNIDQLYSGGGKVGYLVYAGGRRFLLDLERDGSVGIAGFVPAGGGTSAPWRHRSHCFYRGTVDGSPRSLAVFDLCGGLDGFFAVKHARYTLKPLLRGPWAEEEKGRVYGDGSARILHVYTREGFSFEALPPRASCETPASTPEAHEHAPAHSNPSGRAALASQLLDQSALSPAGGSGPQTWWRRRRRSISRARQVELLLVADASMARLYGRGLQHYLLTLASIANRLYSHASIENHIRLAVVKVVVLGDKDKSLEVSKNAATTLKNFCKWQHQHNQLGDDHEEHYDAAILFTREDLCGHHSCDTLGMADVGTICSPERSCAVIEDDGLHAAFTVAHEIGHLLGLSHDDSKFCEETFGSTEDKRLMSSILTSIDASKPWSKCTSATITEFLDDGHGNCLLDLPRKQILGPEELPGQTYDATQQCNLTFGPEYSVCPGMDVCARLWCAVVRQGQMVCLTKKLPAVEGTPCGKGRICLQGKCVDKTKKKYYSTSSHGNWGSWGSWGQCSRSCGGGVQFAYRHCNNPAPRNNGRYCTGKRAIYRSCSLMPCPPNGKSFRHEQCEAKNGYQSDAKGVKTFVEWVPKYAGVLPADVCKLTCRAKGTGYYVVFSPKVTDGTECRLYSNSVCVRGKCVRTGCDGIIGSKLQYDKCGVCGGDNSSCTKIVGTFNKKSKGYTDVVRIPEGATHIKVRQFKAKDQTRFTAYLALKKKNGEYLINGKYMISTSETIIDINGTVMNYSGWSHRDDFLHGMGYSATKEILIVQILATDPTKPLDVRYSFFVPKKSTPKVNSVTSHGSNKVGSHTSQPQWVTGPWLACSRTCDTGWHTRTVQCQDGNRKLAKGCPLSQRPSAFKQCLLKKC
READOUT: Ki (nM)
# output: bare number, implied unit nM

Prompt line: Dear colleague, I am looking for the recorded Ki of the following molecule: O=C(N[C@@H]1CCOC[C@@H]1C(=O)NO)c1ccc(Cn2c(C(F)(F)F)nc3ccccc32)cc1
Response line: 1900

Prompt line: Dear colleague, I am looking for the recorded Ki of the following molecule: Cc1cc(COc2ccc(C(=O)N[C@@]3(CC(=O)NO)C[C@@H](C)N[C@@H](C)C3)cc2)c2ccccc2n1
Response line: 1900

====

TARGET_OF_ASSAY: Disintegrin and metalloproteinase domain-containing protein 9 (Homo sapiens, UniProt Q13443)
Sequence (Q13443 whole entry): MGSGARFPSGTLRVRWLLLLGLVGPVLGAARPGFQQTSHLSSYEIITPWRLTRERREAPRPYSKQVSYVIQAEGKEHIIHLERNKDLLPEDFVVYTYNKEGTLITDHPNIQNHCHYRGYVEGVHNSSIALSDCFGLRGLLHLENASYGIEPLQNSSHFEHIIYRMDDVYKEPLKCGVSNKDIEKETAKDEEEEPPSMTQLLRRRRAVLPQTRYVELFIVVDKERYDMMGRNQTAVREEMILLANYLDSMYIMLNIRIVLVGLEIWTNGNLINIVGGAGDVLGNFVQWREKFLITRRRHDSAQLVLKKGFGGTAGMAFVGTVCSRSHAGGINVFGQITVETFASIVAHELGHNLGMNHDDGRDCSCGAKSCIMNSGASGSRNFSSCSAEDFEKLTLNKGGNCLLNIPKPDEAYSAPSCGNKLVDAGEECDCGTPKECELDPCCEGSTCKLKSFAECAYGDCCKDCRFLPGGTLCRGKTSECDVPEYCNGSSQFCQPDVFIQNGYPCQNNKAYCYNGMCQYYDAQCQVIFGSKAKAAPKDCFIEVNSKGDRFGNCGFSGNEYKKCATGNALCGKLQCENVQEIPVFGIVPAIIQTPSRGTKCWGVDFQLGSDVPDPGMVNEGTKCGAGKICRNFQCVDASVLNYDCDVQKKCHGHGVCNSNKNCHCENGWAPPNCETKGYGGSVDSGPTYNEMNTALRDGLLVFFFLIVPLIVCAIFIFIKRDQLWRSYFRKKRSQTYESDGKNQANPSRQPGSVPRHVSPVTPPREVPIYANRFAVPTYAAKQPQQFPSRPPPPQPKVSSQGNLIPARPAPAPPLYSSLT
READOUT: IC50

Prompt line: Dear colleague, I am looking for the recorded IC50 of the following compound: COC(=O)N1CC2(CC2)C[C@H](C(=O)NO)[C@H]1C(=O)N1CC=C(c2ccccc2)CC1
Response line: > 5 µM
